I'd be grateful if you could share measured AUC for these entries.
- Tested on: rabbit of normal ocular tension
- assay summary: Test Example 2: effect of lowering ocular tension after instillation of test compound to rabbit of normal ocular tension
- Type: in vivo, Japanese white male rabbits
- condition summary: area under curve of time vs difference in ocular tension between treated eye and eye drop base eye; 0.1% (W/V), 50 μL instilled; up to 480 minutes; eye drop base A (saline with polysorbate 80)
Write down the numeric answer in mmHg.min and omit the unit.

Fill in AUC for record Nc1nc(C#CC(O)c2ccccc2)nc2c1ncn2[C@@H]1O[C@H](CO)[C@@H](O)[C@H]1O (some centres unmarked) −1185.6

Fill in AUC for record CCOCC#Cc1nc(N)c2ncn([C@@H]3O[C@H](CO)[C@@H](O)[C@H]3O)c2n1 −1538.3

Fill in AUC for record CCNC(=O)[C@H]1O[C@@H](n2cnc3c(N)nc(NCCc4ccc(CCC(=O)O)cc4)nc32)[C@H](O)[C@@H]1O [CGS-21680, reference compound] −508.1

Fill in AUC for record CCCCCCC#Cc1nc(N)c2ncn([C@@H]3O[C@H](CO)[C@@H](O)[C@H]3O)c2n1 −1093.5

Fill in AUC for record Nc1nc(C#CCOC2CCCCC2)nc2c1ncn2[C@@H]1O[C@H](CO)[C@@H](O)[C@H]1O −945.9

Fill in AUC for record CCCCC#Cc1nc(N)c2ncn([C@@H]3O[C@H](C(=O)NC)[C@@H](O)[C@H]3O)c2n1 −1838.3

Fill in AUC for record Nc1nc(C#CCCCCN2C(=O)c3ccccc3C2=O)nc2c1ncn2[C@@H]1O[C@H](CO)[C@@H](O)[C@H]1O −1471.0

Fill in AUC for record Nc1nc(C#CCO)nc2c1ncn2[C@@H]1O[C@H](CO)[C@@H](O)[C@H]1O [Compound 4, 2-(3-hydroxy-1-propynyl)adenosine] −955.6

====

- assay summary: Test Example 3: single oral dose toxicity in dogs
- condition summary: both sexes, beagle, in vivo, dog, observed for two weeks, maximum dose
observable: LD50 at 2 weeks

Fill in LD50 at 2 weeks for record CCCCCCC#Cc1nc(N)c2ncn([C@@H]3O[C@H](CO)[C@@H](O)[C@H]3O)c2n1 [Compound 2, 2-(1-octynyl)adenosine] ≥ 450 mg/kg

====

- assay summary: Test Example 3: single oral dose toxicity in rats
- condition summary: both sexes, SD, in vivo, rat, observed for two weeks, maximum dose
observable: LD50 at 2 weeks

Fill in LD50 at 2 weeks for record CCCCCCC#Cc1nc(N)c2ncn([C@@H]3O[C@H](CO)[C@@H](O)[C@H]3O)c2n1 [Compound 2, 2-(1-octynyl)adenosine] ≥ 2000 mg/kg
